What apparent KD of MS2 coat protein was measured for each of the following?
# Tested on: MS2 coat protein
# protocol details: apparent KD of MS2 coat protein; higher = weaker reporter binding
# assay setup: Eterna round: R107; input ligand: theophylline 2 mM
Give bare numbers, in nM.

# sequence record, tested on, units, apparent KD of MS2 coat protein
records = [
    ("AACAUGAGGAUCACCCAUGUUCUCGUGUACCGAGGACCGGUACGGCCGCCACUCGGUUCUCGCGAGGAUGGUCAAAGACUAUCCA [Omei Trp A SS B v5]", "MS2 coat protein", "nM", 24.7),
    ("GACAUGAGGAUCACCCAUGUACCGCGAGAAGGAGCGCGGAUAAACGCAGGUAGGUCGCUCGUGGGCUCACAUUCAAUCGUAAGCU [Azaesisma]", "MS2 coat protein", "nM", 165),
    ("UGUAUGGACUGAAGGAGCGCCUCAAAAUAACAUGAGGAUCACCCAUGUAGGCGAAAGCCUGGGCAGGUAGGUCGCAGUCCAUACU [ArgBX 2 #StaticStem #MS2Late]", "MS2 coat protein", "nM", 13.4),
    ("CACAUGAGGAUCACCCAUGUCUGAACUGAAGGAGCGCUAAAUAAGGCAGGUAGGUCGCGGAAUUUUGUGUGCAUAUGCAUAUGGG [9.M]", "MS2 coat protein", "nM", 34.2),
    ("AUACAUGAGGAUCACCCAUGUUAUAGUGAAGGAGCGACGUUUAUGUCAGGUAGGUCGCACUGUUGUUUAAUGAUUCUUGGAUCUU [#21 Exclusion - Arginine A]", "MS2 coat protein", "nM", 13.5),
]

Field: apparent KD of MS2 coat protein. Fill in for each record below.
1. ACGAUAGCACACGAGGAUCACCCGUGUGAUACCAGCCUGGAAACAGGCCCUUGGCAGCACACAAUAAAAGUGUAACUAUCGAAUA [TheoAX4 #MicroSwitchBubble #AlternativeMS2]
2. AUUGACAUGAGGAUCACCCAUGUAUCCGAAGGAGCGGCAGAUGUGCCAGGUAGGUCGCGGGUGAAAGAGACAUCGUAGGGUGUCG [Same State - Arginine A / B [only NuPack]]
3. UUUCUUUUCUUUCUUUCCUUUCAAACCGAAGGAGCGGGAACAAACCCAGGUAGGUCGCGGUGUGACAUGAGGAUCACCCAUGUGU [Exclusion - Arginine]
4. UUGUAUAUGCGAAGGAGCGGGAAAUAUAUAUAUAUAAUCCUAACAUGAGGAUCACCCAUGUCCCAGGUAGGUCGCGCAUAUGUGG [12.G]
5. ACAUGAGGAUCACCCAUGUACAUCACCCGACGAGGACCGGUACGGCCGCCACUCGGGUAUAUAUAUACAUCGGGUGGUUUUGCAU [a15jan]
6. UUAUUUAUAGGCGAUACCAGCCGAAUGGCCGCAAAUCCUAACAUGAGGAUCACCCAUGUCGGCCCUUGGCAGCGCCUAUGGGUUU [XTheo B #27]

result:
1: 161; 2: 469; 3: 85; 4: 68.3; 5: 40; 6: 480

Provide each entry's apparent KD of MS2 coat protein from the list below.
1. CGGGUUGGACCAGGAAAUGGUCUGACGCGCCGAGGACCGGUACGGCCGCCACUCGCGGGUACAUGAGGAUCACCCAUGUCGGUGG [#1 Same State - Tryptophan A Attempt #12 (HarryS)]
2. AAAAGAGGUGGAAGGAGCGGGAGACAUGAGGAUCACCCAUGUGAUGUUACGAAAGGUUCAGCCCAGGUAGGUCGCCAUGUCGAAA [zczzmullin]

result:
[61.7, 175]

Can you give me apparent KD of MS2 coat protein for all of these, one by one?
1. GUAAUGAUAAGAAGGAGCGUCGAAAAUGGGUAAACAUGAGGAUCACCCAUGUAAAGGGAACGACAGGUAGGUCGCUUAUUAUUAC [AstromonsSSArgB#21]
2. AGCCGGAUUACGGCCGCCACUGUAGACGUGACGAAAGUCGCGUCAACAUGAGGAUCACCCAUGUACAGGACCGGGUGGUCGGGCG [Omei Tryp B SS A v5]
3. AGUAUUGGAAACAGUACUAGUGAUCCGGUCCGAGGACCGGUACGGCCGCCACUCGAAUUAAAUAAACAUGAGGAUCACCCAUGUA [Ex Tryptophan A 15]
4. GGGAGAUAGGCGGCCGCCACUGAUUUUCAUAUAUAUAUAACAUGAGGAUCACCCAUGUAGAUAUACAGGACCGGGCCUAUUUUUU [aaaE]
5. ACAUGAGGAUCACCCAUGUAAUAAUCAGAAGGAGCGUGGAAUAACACAGGUAGGUCGCUGAUGUUUUGUUAAAAUUAUUCGUGAA [JR_SSArginiA_Sub002]
6. AGGACGGUCGGAAGGAGCGGUACAUGAGGAUCACCCAUGUAUUCCUGGGCAUCCGUAGUGUGCCAGGUAGGUCGCCGAUUGCGGG [XArg-B7]
7. AAAUUAUAGGCGGCCGCCACUAGAGUUAGGCUUAUGUACUGGGUAACAUGAGGAUCACCCAUGUAUAGGACCGGGCCAUAAUAAA [Same State - Tryptophan B (Freestyle 3)]
8. CUACAUUUGUAGAAACCGGUCAACAUUAUUCGAGGACCGGUACGGCCGCCACUCGUAUAAUUUAAUACAUGAGGAUCACCCAUGU [Tryptophan A 5]

result:
203
240
20.6
19.7
12.9
103
63.5
16.9

Please state, for each entry, its recorded apparent KD of MS2 coat protein.
1. AGAUUCGACACGGCCGCCACUUGUGGUGGAUUAUCCUGUGUCGAACAUGAGGAUCACCCAUGUACAAGGACCGGGUGUUGAGUCU [XTryp B #20]
2. UGUAUGUGAUCUGAUACCAGCUUUGAUAACCUGAGGAUCACCCUGGUAAGGCGAAAGCCAAGCCCUUGGCAGCAGAUCGCAUACU

result:
1: 136; 2: 21.9
